The measurements presented in this section are drawn from ChEMBL document CHEMBL4373665.

- SYSTEM NAME: Prostaglandin G/H synthase 2 (Homo sapiens)
- Sequence (P35354 whole entry): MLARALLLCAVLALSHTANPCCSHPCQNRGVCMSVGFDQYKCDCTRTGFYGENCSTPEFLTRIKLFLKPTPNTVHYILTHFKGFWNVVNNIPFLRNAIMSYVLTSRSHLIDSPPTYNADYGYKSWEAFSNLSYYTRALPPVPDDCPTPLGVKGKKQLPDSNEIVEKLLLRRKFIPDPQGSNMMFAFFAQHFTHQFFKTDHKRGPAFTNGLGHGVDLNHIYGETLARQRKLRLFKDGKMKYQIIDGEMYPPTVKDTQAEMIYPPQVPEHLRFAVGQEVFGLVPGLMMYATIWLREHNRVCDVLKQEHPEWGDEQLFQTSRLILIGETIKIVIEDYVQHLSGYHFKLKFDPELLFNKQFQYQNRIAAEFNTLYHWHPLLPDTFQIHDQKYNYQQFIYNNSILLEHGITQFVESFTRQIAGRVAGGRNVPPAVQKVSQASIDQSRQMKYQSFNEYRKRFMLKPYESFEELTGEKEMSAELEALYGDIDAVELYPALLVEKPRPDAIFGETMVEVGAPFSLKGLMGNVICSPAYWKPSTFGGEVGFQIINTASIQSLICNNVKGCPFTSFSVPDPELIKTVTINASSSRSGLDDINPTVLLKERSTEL
- METHOD DESCRIPTION: Inhibition of human recombinant COX2 assessed as decrease in prostaglandin production using arachidonic acid as substrate pretreated for 15 mins followed by substrate addition and measured after 2 mins by enzyme immunoassay
Answer each item with its documented pIC50.
The value called pIC50 is obtained by taking minus log10 of the concentration in mol/L.

Q. Request the reported pIC50 associated with N#CC1=C(N)OC(c2ccc(Cl)cc2)=CC1c1cn(-c2ccccc2)nc1-c1ccc(OCc2ccccc2)cc1 (stereo unspecified)
A. 4.93

Q. Which measured pIC50 value corresponds to NC(=S)n1nc(-c2ccccc2)cc1-c1cn(-c2ccccc2)nc1-c1ccc(OCc2ccccc2)cc1 ?
A. 5.28

Q. Name the reported pIC50 value associated with the compound O=C(/C=C/c1cn(-c2ccccc2)nc1-c1ccc(OCc2ccccc2)cc1)c1ccc(Cl)cc1
A. 6.22

Q. Need pIC50, item CC(=O)n1nc(-c2ccccc2)cc1-c1cn(-c2ccccc2)nc1-c1ccc(OCc2ccccc2)cc1
A. 5.71

Q. Query: pIC50; subject: Nc1nc(-c2ccccc2)cc(-c2cn(-c3ccccc3)nc2-c2ccc(OCc3ccccc3)cc2)n1
A. 5.55

Q. Can you look up the measured pIC50 of N#CC1=C(N)OC(c2ccccc2)=CC1c1cn(-c2ccccc2)nc1-c1ccc(OCc2ccccc2)cc1 (stereo unspecified) for me?
A. 6.14

----------
- Species on record: Homo sapiens
- METHOD DESCRIPTION: Selectivity index, ratio of IC50 for human recombinant COX1 to IC50 for human recombinant COX2 using arachidonic acid as substrate
MEASUREMENT LABEL: Ratio IC50
Lab note: write the figure by itself, no unit.

Q. Give the measured Ratio IC50 of S=c1nc(-c2ccccc2)cc(-c2cn(-c3ccccc3)nc2-c2ccc(OCc3ccccc3)cc2)[nH]1 .
A. 0.31

Q. Please report the recorded Ratio IC50 for c1ccc(COc2ccc(-c3nn(-c4ccccc4)cc3-c3cc(-c4ccccc4)no3)cc2)cc1 .
A. 4.54

Q. Ratio IC50 lookup needed for N#CC1=C(N)OC(c2ccc(Cl)cc2)=CC1c1cn(-c2ccccc2)nc1-c1ccc(OCc2ccccc2)cc1 (stereo unspecified) , thanks.
A. 0.831

Q. So what's the measured Ratio IC50 for this one? S=c1nc(-c2ccc(Cl)cc2)cc(-c2cn(-c3ccccc3)nc2-c2ccc(OCc3ccccc3)cc2)[nH]1
A. 6.54

Q. Give its Ratio IC50 value. Item: NC(=S)n1nc(-c2ccc(Cl)cc2)cc1-c1cn(-c2ccccc2)nc1-c1ccc(OCc2ccccc2)cc1
A. 1.31

Q. What measured Ratio IC50 goes with O=C(/C=C/c1cn(-c2ccccc2)nc1-c1ccc(OCc2ccccc2)cc1)c1ccc(Cl)cc1 ?
A. 9.32
